# Experimental Target: T1, ZFP SBS#712 (synthetic)
# T1 chain: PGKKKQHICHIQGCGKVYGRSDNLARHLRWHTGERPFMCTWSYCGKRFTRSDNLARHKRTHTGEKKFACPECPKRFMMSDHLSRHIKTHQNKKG
# Assay Remarks: EMSA
# Measurement Conditions: tags: MBP fusion
Property Label: Kd

GGTGAGGAGT (dsDNA) DNA 1: GGTGAGGAGT DNA 2: ACTCCTCACC; 9.5 nM
